biological target: Cytochrome P450 2D6 (Homo sapiens, UniProt P10635); test: Inhibition of human recombinant CYP2D6
Sequence (P10635 whole entry): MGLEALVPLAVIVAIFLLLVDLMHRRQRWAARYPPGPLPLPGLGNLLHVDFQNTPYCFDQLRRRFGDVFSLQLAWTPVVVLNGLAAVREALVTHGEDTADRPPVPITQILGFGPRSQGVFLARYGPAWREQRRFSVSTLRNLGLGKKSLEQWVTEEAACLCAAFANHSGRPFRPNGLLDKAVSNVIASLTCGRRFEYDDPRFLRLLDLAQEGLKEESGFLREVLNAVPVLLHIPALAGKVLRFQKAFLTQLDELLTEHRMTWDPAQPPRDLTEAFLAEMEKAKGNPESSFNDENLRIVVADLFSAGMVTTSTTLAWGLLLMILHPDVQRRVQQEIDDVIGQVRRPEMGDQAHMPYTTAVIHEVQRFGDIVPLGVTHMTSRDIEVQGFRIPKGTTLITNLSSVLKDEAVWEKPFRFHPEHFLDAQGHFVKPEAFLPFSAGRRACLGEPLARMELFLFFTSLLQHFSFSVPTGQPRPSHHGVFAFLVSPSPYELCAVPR
pIC50: −log10 of the molar value.
Readout: pIC50

Below, each entry is followed by its recorded pIC50 result.
O=C(/C=C/c1ccc(O)cc1)/C=C/c1ccc(O)cc1 | 5.70
Cc1cc(/C=C/C(=O)/C=C/c2cc(C)c(O)c(C)c2)cc(C)c1O | 4.88
COc1cc(/C=C/C(=O)/C=C/c2ccc(O)c(OC)c2)ccc1O | 6.22

a: CC(C)(C)c1cc(/C=C2\CC/C(=C\c3cc(C(C)(C)C)c(O)c(C(C)(C)C)c3)C2=O)cc(C(C)(C)C)c1O
b: COc1cc(/C=C/C(=O)CC(=O)/C=C/c2ccc(O)c(OC)c2)ccc1O
Exercise: Task for the reader: decide whether a or b has the larger pIC50. Please identify the chosen entry by its label.
Solution: b
(b: 4.30, a: 3.93)

* * *

biological target: Cytochrome P450 2C9 (Homo sapiens, UniProt P11712); test: Inhibition of human recombinant CYP2C9
Sequence (P11712 whole entry): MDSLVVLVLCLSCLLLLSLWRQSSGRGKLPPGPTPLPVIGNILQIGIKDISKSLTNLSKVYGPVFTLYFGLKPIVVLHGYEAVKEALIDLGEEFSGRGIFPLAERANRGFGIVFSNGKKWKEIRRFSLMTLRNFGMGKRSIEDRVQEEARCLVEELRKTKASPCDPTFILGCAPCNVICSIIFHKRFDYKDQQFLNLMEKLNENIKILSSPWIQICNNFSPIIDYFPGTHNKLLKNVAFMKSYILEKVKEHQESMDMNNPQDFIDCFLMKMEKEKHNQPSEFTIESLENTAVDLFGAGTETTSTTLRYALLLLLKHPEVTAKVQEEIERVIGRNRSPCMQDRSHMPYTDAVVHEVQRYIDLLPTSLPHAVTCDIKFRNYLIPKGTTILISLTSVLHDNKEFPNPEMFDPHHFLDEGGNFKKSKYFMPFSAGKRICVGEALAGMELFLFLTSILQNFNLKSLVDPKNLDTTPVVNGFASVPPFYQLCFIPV
pIC50: −log10 of the molar value.
Readout: pIC50

Worked examples follow.
O=C(/C=C/c1cccc(Cl)c1)/C=C/c1cccc(Cl)c1 | 4.67
COc1cc(/C=C2\CC/C(=C\c3ccc(O)c(OC)c3)C2=O)ccc1O | 5.55
O=C1/C(=C/c2ccc(O)cc2)CC/C1=C\c1ccc(O)cc1 | 5.00
CC(C)(C)c1cc(/C=C2\CC/C(=C\c3cc(C(C)(C)C)c(O)c(C(C)(C)C)c3)C2=O)cc(C(C)(C)C)c1O | 4.26
O=C(/C=C/c1ccc(O)cc1)/C=C/c1ccc(O)cc1 | 5.74
Cc1cc(/C=C2\CC/C(=C\c3cc(C)c(O)c(C)c3)C2=O)cc(C)c1O | 4.55

A: Cc1cc(/C=C/C(=O)/C=C/c2cc(C)c(O)c(C)c2)cc(C)c1O
B: O=C1/C(=C/c2ccc(O)cc2)CCC/C1=C\c1ccc(O)cc1
Exercise: Decide: A or B , by lowest recorded pIC50. Refer to your chosen entry by its label in the reply.
Solution: A

* * *

target: UniProt:P20813; assay: Inhibition of human recombinant CYP2B6
Readout: IC50 (µM)

COc1cc(/C=C/C(=O)/C=C/c2cc(OC)c(O)c(OC)c2)cc(OC)c1O | 24.8

a: COc1cc(/C=C/C(=O)CC(=O)/C=C/c2ccc(O)c(OC)c2)ccc1O [CURCUMIN]
b: Cc1cc(/C=C/C(=O)/C=C/c2cc(C)c(O)c(C)c2)cc(C)c1O
c: COc1cc(/C=C2\CC/C(=C\c3cc(OC)c(O)c(OC)c3)C2=O)cc(OC)c1O
Exercise: Please rank these compounds by IC50 in descending order. Answer format: the labels, ordered as requested.
Solution: c, b, a
(c: 70 µM, b: 44.8 µM, a: 24.5 µM)

* * *

target: Cytochrome P450 2C9 (Homo sapiens, UniProt P11712); assay: Inhibition of human recombinant CYP2C9 in presence of reduced glutathione; format: ADME; conditions: recombinant enzyme
Readout: Activity

COc1ccc(/C=C2\CCC/C(=C\c3ccc(OC)cc3)C2=O)cc1 | Not Active
CC(C)(C)c1cc(/C=C2\CCC/C(=C\c3cc(C(C)(C)C)c(O)c(C(C)(C)C)c3)C2=O)cc(C(C)(C)C)c1O | Not Active
O=C1/C(=C/c2cccc(Cl)c2)CC/C1=C\c1cccc(Cl)c1 | Not Active
O=C1/C(=C/c2ccccc2)CCC/C1=C\c1ccccc1 | Not Active
O=C1/C(=C/c2ccc(C(F)(F)F)cc2)CC/C1=C\c1ccc(C(F)(F)F)cc1 | Not Active

Exercise: Lookup: Activity / Cytochrome P450 2C9 (Homo sapiens, UniProt P11712) / COc1cc(/C=C/C(=O)/C=C/c2cc(OC)c(O)c(OC)c2)cc(OC)c1O
Solution: Not Active

Exercise: Do the same for CN(C)c1ccc(/C=C2\CC/C(=C\c3ccc(N(C)C)cc3)C2=O)cc1 please
Solution: Not Active

Exercise: Now give it for O=C(/C=C/c1ccccc1)/C=C/c1ccccc1 too.
Solution: Not Active

Exercise: Now this one: O=C(/C=C/c1ccc(Cl)cc1)/C=C/c1ccc(Cl)cc1
Solution: Not Active

Exercise: Please give the result for COc1ccc(/C=C2\CC/C(=C\c3ccc(OC)cc3)C2=O)cc1 too.
Solution: Not Active

Exercise: What about COc1cc(/C=C2\CC/C(=C\c3ccc(O)c(OC)c3)C2=O)ccc1O ?
Solution: Not Active

Exercise: Now try Cc1cc(/C=C2\CCC/C(=C\c3cc(C)c(O)c(C)c3)C2=O)cc(C)c1O .
Solution: Not Active

Exercise: Now this one: O=C1/C(=C/c2ccc(O)cc2)CCC/C1=C\c1ccc(O)cc1
Solution: Not Active

Exercise: Also check O=C(/C=C/c1ccc(O)cc1)/C=C/c1ccc(O)cc1
Solution: Not Active

Exercise: Entry to check: O=C(/C=C/c1cccc(Cl)c1)/C=C/c1cccc(Cl)c1
Solution: Not Active

Exercise: Now consider O=C1/C(=C/c2cccc(Cl)c2)CCC/C1=C\c1cccc(Cl)c1 .
Solution: Not Active

* * *

target: UniProt:P20813; assay: Inhibition of human recombinant CYP2B6 at 100 uM; format: ADME
Measured inhibition at 100 µM, listed per entry for reference.

The following compounds have reported results that may help.
COc1cc(/C=C/C(=O)/C=C/c2cc(OC)c(O)c(OC)c2)cc(OC)c1O | > 20%
COc1cc(/C=C2\CC/C(=C\c3cc(OC)c(O)c(OC)c3)C2=O)cc(OC)c1O | > 20%

The record that follows has no inhibition at 100 µM shown yet.
Exercise: Please state recorded inhibition at 100 µM (tested on UniProt:P20813) of Cc1cc(/C=C/C(=O)/C=C/c2cc(C)c(O)c(C)c2)cc(C)c1O
Solution: > 20%

* * *

biological target: Cytochrome P450 3A4 (Homo sapiens, UniProt P08684); assay: Inhibition of human recombinant CYP3A4
Sequence (P08684 whole entry): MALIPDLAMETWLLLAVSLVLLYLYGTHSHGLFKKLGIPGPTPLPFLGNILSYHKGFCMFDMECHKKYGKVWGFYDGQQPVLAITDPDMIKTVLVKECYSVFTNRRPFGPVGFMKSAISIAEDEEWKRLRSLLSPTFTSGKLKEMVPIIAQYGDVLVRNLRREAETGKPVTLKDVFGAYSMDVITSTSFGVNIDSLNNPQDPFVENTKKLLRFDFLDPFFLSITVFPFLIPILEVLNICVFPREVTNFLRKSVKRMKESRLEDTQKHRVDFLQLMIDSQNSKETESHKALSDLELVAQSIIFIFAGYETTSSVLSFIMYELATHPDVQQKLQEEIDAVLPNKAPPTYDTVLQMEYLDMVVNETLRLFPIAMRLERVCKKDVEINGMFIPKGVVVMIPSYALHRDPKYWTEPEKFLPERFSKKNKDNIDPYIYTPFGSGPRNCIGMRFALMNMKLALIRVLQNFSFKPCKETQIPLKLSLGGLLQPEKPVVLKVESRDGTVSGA
pIC50: −log10 of the molar value.
Readout: pIC50

COc1cc(/C=C2\CC/C(=C\c3cc(OC)c(O)c(OC)c3)C2=O)cc(OC)c1O | 4.42
Cc1cc(/C=C/C(=O)/C=C/c2cc(C)c(O)c(C)c2)cc(C)c1O | 4.39
CCc1cc(/C=C2\CC/C(=C\c3cc(CC)c(O)c(CC)c3)C2=O)cc(CC)c1O | 4.13
COc1cc(/C=C2\CC/C(=C\c3ccc(O)c(OC)c3)C2=O)ccc1O | 4.19
COc1cc(/C=C/C(=O)CC(=O)/C=C/c2ccc(O)c(OC)c2)ccc1O | 4.79

1: COc1cc(/C=C/C(=O)/C=C/c2cc(OC)c(O)c(OC)c2)cc(OC)c1O
2: O=C1/C(=C/c2ccc(O)cc2)CC/C1=C\c1ccc(O)cc1
Exercise: Please indicate which has the smaller reported pIC50: 1 , or 2 . Your answer should be the label attached to the chosen record.
Solution: 1
(1: 4.88, 2: 5.29)

* * *

Biological target: Cytochrome P450 1A2 (Homo sapiens, UniProt P05177)
Sequence (P05177 whole entry): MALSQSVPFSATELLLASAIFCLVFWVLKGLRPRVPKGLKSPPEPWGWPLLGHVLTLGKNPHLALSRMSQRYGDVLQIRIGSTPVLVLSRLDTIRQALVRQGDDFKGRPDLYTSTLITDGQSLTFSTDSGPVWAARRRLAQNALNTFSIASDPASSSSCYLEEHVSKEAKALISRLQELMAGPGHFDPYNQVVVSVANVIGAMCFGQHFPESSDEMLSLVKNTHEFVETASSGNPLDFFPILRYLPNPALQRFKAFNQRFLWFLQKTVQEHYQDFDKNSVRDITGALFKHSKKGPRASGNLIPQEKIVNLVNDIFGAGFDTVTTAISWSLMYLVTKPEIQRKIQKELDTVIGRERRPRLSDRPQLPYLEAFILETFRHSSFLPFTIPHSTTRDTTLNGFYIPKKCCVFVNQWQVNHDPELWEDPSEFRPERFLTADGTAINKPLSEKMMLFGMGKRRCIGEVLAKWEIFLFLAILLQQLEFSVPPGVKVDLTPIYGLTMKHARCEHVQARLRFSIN
Experiment: Inhibition of human recombinant CYP1A2
Details: human, recombinant CYP1A2
Readout: log(1/IC50)

Record excerpt, results attached:
CC(C)(C)c1ccc(/C=C/C(=O)/C=C/c2ccc(C(C)(C)C)cc2)cc1 | 1.553
O=C(/C=C/c1cccc(Cl)c1)/C=C/c1cccc(Cl)c1 | 2.469
O=C(/C=C/c1ccc(Cl)cc1)/C=C/c1ccc(Cl)cc1 | 1.575
O=C1/C(=C/c2ccc(C(F)(F)F)cc2)CCC/C1=C\c1ccc(C(F)(F)F)cc1 | 1.983
COc1cc(/C=C2\CC/C(=C\c3ccc(O)c(OC)c3)C2=O)ccc1O | 1.41

A: O=C1/C(=C/c2ccccc2)CC/C1=C\c1ccccc1
B: O=C1/C(=C/c2ccccc2)CCC/C1=C\c1ccccc1
Exercise: Compare A and B by numeric log(1/IC50) and name the larger one. // output: label of the selected item
Solution: B
(B: 3.046, A: 1.437)

Where do these numbers come from? They come from ChEMBL document CHEMBL1141678.
